Just for reference, the supplement of paper PMC10126150 is where these values come from.

- Test system: ATP;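 further: ATP exposure 15 min at 22 °C before imaging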
- Test Details: switch fluorescence ratio, 500 uM ATP over buffer (Cy3 cluster intensity, sum of 5 cycles each) (fold (ratio)); higher = stronger signal-on switching upon ATP binding; sequences stand for … in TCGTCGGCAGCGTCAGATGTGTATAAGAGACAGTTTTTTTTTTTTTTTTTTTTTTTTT…TC
- Run Parameters: aptamer strand: ATP DNA aptamer (quencher-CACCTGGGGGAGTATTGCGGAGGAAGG + anchor), 100 nM annealed; ATP concentration: 500 uM
Reported Property: switch fluorescence ratio
API note: the answer field is a bare number with no unit suffix.

INSERT INTO measurements (seq, target_or_system, reading) VALUES
  ('AGTTGCGTCG', 'ATP', 0.997);

For the next question, use this sequence.
In plain terms, GGCAATATTT has a documented switch fluorescence ratio of 1.2

----------
- System: ATP;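 further: ATP exposure 15 min at 22 °C before imaging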
- Test Details: switch fluorescence ratio, 500 uM ATP over buffer (Cy3 cluster intensity, sum of 5 cycles each) (fold (ratio)); higher = stronger signal-on switching upon ATP binding; sequences stand for … in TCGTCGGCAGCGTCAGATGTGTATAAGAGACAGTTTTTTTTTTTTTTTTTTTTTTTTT…TC
- Run Parameters: aptamer strand: ATP DNA aptamer (quencher-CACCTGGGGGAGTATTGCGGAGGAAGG + anchor), 100 nM annealed; ATP concentration: 500 uM
Let's look at some sequences and their measured switch fluorescence ratio.
API note: the answer field is a bare number with no unit suffix.

# example entries with known answers
INSERT INTO assay_data (seq, target_or_system, reading) VALUES
  ('CCCTTGACGG', 'ATP', 1.07),
  ('CGGGGAGGTA', 'ATP', 0.98),
  ('CACTTAGGTG', 'ATP', 1.19),
  ('ATGAGGGTAG', 'ATP', 1.02);

In plain terms, AATAGGAATG has a documented switch fluorescence ratio of 0.996

In plain terms, CAGCACGATA has a documented switch fluorescence ratio of 1.16

In plain terms, CGAATTCCGG has a documented switch fluorescence ratio of 1.01

In plain terms, ATTGTTCAAA has a documented switch fluorescence ratio of 1

In plain terms, CGAGCTTGAA has a documented switch fluorescence ratio of 1.03

In plain terms, CAGATAGGTT has a documented switch fluorescence ratio of 1.09

In plain terms, GTTCTTGTAT has a documented switch fluorescence ratio of 0.988

In plain terms, CCTGAATTAT has a documented switch fluorescence ratio of 0.994

In plain terms, CATATTATGG has a documented switch fluorescence ratio of 0.981

In plain terms, AGATAATGGC has a documented switch fluorescence ratio of 1.11

In plain terms, GTCCATAGGT has a documented switch fluorescence ratio of 1.02

In plain terms, GATATCAACG has a documented switch fluorescence ratio of 1

In plain terms, GGGTAATGCA has a documented switch fluorescence ratio of 1.03

In plain terms, TTAATGTGGG has a documented switch fluorescence ratio of 0.995

In plain terms, CAATTTTATA has a documented switch fluorescence ratio of 1.03

In plain terms, TGGTAATCAA has a documented switch fluorescence ratio of 1.01

In plain terms, TATTTTAGTA has a documented switch fluorescence ratio of 1.01

In plain terms, GATATTTTTA has a documented switch fluorescence ratio of 0.98

----------
Let's look at some sequences and their measured switch fluorescence ratio.
- Test system: ATP;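 further: ATP exposure 15 min at 22 °C before imaging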
- Test Details: switch fluorescence ratio, 500 uM ATP over buffer (Cy3 cluster intensity, sum of 5 cycles each) (fold (ratio)); higher = stronger signal-on switching upon ATP binding; sequences stand for … in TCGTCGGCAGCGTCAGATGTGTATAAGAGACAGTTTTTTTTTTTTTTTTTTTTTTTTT…TC
- Run Parameters: aptamer strand: ATP DNA aptamer (quencher-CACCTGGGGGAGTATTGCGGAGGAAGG + anchor), 100 nM annealed; ATP concentration: 500 uM
API note: the answer field is a bare number with no unit suffix.

INSERT INTO assay_data (seq, reported_property, reading) VALUES
  ('GGGGACCAGT', 'switch fluorescence ratio', 0.985),
  ('GTTTATGCCA', 'switch fluorescence ratio', 0.997),
  ('CTTTGCACGA', 'switch fluorescence ratio', 1.1),
  ('TGGCAATGAA', 'switch fluorescence ratio', 1.28),
  ('GTGTTTATGG', 'switch fluorescence ratio', 0.984);

Entry AGATTATTGA , ATP data, switch fluorescence ratio value: 0.943

Entry ATTTTTGGGA , ATP data, switch fluorescence ratio value: 0.981

Entry ACGGCACTCG , ATP data, switch fluorescence ratio value: 1.4

Entry GGACTATGGT , ATP data, switch fluorescence ratio value: 0.981

Entry TATGTATGC , ATP data, switch fluorescence ratio value: 1.03

Entry TGCTCGGCGT , ATP data, switch fluorescence ratio value: 0.998

Entry TTGTGAAGGG , ATP data, switch fluorescence ratio value: 0.966

----------
- Test system: ATP;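 further: ATP exposure 15 min at 22 °C before imaging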
- Test Details: switch fluorescence ratio, 500 uM ATP over buffer (Cy3 cluster intensity, sum of 5 cycles each) (fold (ratio)); higher = stronger signal-on switching upon ATP binding; sequences stand for … in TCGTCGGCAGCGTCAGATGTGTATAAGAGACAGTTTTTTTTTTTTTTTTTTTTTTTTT…TC
- Run Parameters: aptamer strand: ATP DNA aptamer (quencher-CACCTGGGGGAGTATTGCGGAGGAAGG + anchor), 100 nM annealed; ATP concentration: 500 uM
Mark true for reported switch fluorescence ratio of 1 or greater; mark false for anything smaller.

INSERT INTO measurements (seq, target_or_system, cat) VALUES
  ('CGTTAGATT', 'ATP', 'false');

Query: Record TGGGTAACTT ; criterion: switch fluorescence ratio no lower than 1. Met?
Reply: true

Query: Record CGGCTAGTGC ; criterion: switch fluorescence ratio no lower than 1. Met?
Reply: true

Query: Record TTTTGGCCGT ; criterion: switch fluorescence ratio no lower than 1. Met?
Reply: true

----------
- Tested on: ATP;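 further: ATP exposure 15 min at 22 °C before imaging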
- Test Details: switch fluorescence ratio, 500 uM ATP over buffer (Cy3 cluster intensity, sum of 5 cycles each) (fold (ratio)); higher = stronger signal-on switching upon ATP binding; sequences stand for … in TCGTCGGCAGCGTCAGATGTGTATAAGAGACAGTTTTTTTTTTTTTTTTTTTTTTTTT…TC
- Run Parameters: aptamer strand: ATP DNA aptamer (quencher-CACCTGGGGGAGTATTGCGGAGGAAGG + anchor), 100 nM annealed; ATP concentration: 500 uM
Let's look at some sequences and their measured switch fluorescence ratio.

# example entries with known answers
INSERT INTO results (seq, reading) VALUES
  ('TCAATCGTGG', 1.01),
  ('GAAGGTATTG', 0.977),
  ('TCCGAAGGGT', 0.991),
  ('TTTATTATAT', 1.01),
  ('TTTTCGGTTT', 1);

In plain terms, TTGAGAAAGG has a documented switch fluorescence ratio of 1.02

In plain terms, GGTAGGAAAC has a documented switch fluorescence ratio of 0.994

----------
- System: ATP;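 further: ATP exposure 15 min at 22 °C before imaging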
- Test Details: switch fluorescence ratio, 500 uM ATP over buffer (Cy3 cluster intensity, sum of 5 cycles each) (fold (ratio)); higher = stronger signal-on switching upon ATP binding; sequences stand for … in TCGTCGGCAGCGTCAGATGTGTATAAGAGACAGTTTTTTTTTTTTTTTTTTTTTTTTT…TC
- Run Parameters: aptamer strand: ATP DNA aptamer (quencher-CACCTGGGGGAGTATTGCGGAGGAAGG + anchor), 100 nM annealed; ATP concentration: 500 uM
Let's look at some sequences and their measured switch fluorescence ratio.
API note: the answer field is a bare number with no unit suffix.

INSERT INTO assay_data (seq, reading) VALUES
  ('TATTAAGAAT', 0.987),
  ('ACTGGGATGT', 1.02),
  ('TGGTCTTCCA', 1.04),
  ('GGTTTTAGTT', 0.986),
  ('TTATCGGCGC', 0.999);

In plain terms, GTGGTGCCAA has a documented switch fluorescence ratio of 1.01

In plain terms, CTTACCTTGA has a documented switch fluorescence ratio of 0.997

In plain terms, GAGGTAGCGT has a documented switch fluorescence ratio of 1.01

In plain terms, GGATAACGGG has a documented switch fluorescence ratio of 1.02

In plain terms, AGACTGATGA has a documented switch fluorescence ratio of 1.01

----------
- Test system: ATP;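 further: ATP exposure 15 min at 22 °C before imaging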
- Test Details: switch fluorescence ratio, 500 uM ATP over buffer (Cy3 cluster intensity, sum of 5 cycles each) (fold (ratio)); higher = stronger signal-on switching upon ATP binding; sequences stand for … in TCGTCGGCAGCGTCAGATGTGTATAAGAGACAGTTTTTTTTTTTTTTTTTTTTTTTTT…TC
- Run Parameters: aptamer strand: ATP DNA aptamer (quencher-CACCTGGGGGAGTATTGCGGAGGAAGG + anchor), 100 nM annealed; ATP concentration: 500 uM
Reported Property: switch fluorescence ratio
API note: the answer field is a bare number with no unit suffix.

INSERT INTO measurements (seq, reading) VALUES
  ('GATAGATAGG', 0.967),
  ('AAGGGGAATG', 1.02),
  ('GAAAATTAGT', 1.02),
  ('AAATCACGTC', 1.07),
  ('AAGATGGTGG', 1);

Entry AATTAATTTT , ATP data, switch fluorescence ratio value: 0.995

Entry GGGTGAGTG , ATP data, switch fluorescence ratio value: 0.996

Entry CCAGCTAGTT , ATP data, switch fluorescence ratio value: 1.05

Entry AAAATTATCT , ATP data, switch fluorescence ratio value: 1.01

Entry TCCTTTGGTC , ATP data, switch fluorescence ratio value: 0.987

Entry TGGTCCATTT , ATP data, switch fluorescence ratio value: 1.01

Entry GGGTGTGTGC , ATP data, switch fluorescence ratio value: 1.03
